- test.target: LATS1 (Homo sapiens)
- Sequence (O95835 whole entry): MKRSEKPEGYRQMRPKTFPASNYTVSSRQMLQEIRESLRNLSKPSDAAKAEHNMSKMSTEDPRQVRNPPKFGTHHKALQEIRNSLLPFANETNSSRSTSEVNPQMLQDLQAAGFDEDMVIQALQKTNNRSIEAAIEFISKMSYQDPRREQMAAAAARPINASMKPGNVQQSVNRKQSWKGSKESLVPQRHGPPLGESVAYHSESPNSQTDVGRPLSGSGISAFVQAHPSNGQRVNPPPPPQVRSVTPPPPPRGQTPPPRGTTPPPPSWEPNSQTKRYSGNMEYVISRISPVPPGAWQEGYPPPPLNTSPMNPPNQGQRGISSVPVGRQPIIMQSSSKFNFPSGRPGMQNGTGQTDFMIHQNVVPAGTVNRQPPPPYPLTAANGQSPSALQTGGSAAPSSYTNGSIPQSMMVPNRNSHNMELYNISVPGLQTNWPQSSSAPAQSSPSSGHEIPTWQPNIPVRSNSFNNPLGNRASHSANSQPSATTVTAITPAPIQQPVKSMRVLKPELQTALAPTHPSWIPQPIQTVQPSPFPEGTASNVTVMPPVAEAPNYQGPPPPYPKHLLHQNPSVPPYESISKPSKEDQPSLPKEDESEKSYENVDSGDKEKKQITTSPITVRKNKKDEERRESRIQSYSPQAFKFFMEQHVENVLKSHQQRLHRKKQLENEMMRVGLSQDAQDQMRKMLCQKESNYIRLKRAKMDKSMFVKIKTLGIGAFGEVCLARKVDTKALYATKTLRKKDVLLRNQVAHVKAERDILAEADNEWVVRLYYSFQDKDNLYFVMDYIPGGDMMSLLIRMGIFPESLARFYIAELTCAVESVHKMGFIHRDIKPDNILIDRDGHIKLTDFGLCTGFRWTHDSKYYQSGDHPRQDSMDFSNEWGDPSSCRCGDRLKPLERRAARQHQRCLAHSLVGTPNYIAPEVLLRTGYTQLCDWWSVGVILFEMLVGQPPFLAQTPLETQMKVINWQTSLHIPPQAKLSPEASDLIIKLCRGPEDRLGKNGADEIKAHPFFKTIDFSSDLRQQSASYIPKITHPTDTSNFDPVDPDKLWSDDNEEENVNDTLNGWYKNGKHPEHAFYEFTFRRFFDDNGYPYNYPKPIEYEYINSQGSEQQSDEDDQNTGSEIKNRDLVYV
- protocol.text: KINOMEscan competition binding
- particulars: read-out: %Inh LATS1
quantity.name: inhibition at 1 µM (%)
Field: numeric (%). Do not append units.

Problem: Please look up its inhibition at 1 µM: Cn1cc(-c2cnc(N)c3c(-c4ccc5c(c4)CCN5C(=O)Cc4ccccc4)csc23)cn1 [UNC10225012A]
Result: 1

Problem: Try this compound next: CS(=O)(=O)Cc1ccc(Nc2nccc(-c3c(-c4cccc(NC(=O)C5CCCCC5)c4)nn4ncccc34)n2)cc1 [UNC10225159A]
Result: 0

Problem: Ok, now Cc1ccc(NC(=O)Nc2cccc(C(F)(F)F)c2)cc1 [UNC10225187A]
Result: 0

Problem: Another compound to check: COc1cccc(OC)c1C(=O)Nc1cccc(-c2nn3ccccc3c2-c2ccnc(Nc3cccc(F)c3)n2)c1 [UNC10225310A]
Result: 6

Problem: Now consider O=c1cc(N2CCOCC2)nc2n(Cc3cccc(Cl)c3Cl)c(C3CC3)nn12 [UNC10225469A] and answer again.
Result: 0

* * *

- test.target: DYRK1B (Homo sapiens, UniProt Q9Y463)
- Sequence (Q9Y463 whole entry): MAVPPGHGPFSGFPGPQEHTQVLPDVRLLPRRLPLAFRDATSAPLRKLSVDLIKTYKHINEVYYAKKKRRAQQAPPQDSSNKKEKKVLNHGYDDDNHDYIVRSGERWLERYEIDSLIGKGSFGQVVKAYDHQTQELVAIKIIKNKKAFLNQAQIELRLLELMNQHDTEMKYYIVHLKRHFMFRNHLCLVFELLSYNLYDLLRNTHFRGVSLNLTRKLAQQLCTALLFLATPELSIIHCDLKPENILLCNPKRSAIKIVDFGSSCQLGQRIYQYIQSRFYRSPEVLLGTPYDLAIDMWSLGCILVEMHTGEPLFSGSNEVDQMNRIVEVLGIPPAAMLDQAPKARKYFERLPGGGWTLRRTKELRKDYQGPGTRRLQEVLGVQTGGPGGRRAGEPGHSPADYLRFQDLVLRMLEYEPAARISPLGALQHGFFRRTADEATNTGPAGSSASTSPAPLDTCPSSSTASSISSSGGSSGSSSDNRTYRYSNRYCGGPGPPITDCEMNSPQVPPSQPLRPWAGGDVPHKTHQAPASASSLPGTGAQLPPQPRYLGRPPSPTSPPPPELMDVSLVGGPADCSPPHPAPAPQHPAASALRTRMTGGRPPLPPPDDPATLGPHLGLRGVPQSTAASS
- protocol.text: KINOMEscan competition binding
- particulars: read-out: %Inh DYRK1B
Would you kindly list inhibition at 1 µM for each of these molecules?
Kindly answer with a numeric value in %, unit omitted.

Problem: What value of inhibition at 1 µM on DYRK1B (Homo sapiens, UniProt Q9Y463) does Cc1ccc(NC(=O)Nc2cccc(C(F)(F)F)c2)cc1 [UNC10225187A] have?
Result: 0

Problem: Try Cn1cc(-c2cnc(N)c3c(-c4ccc5c(c4)CCN5C(=O)Cc4ccccc4)csc23)cn1 [UNC10225012A] next.
Result: 0

Problem: Next up: CS(=O)(=O)Cc1ccc(Nc2nccc(-c3c(-c4cccc(NC(=O)C5CCCCC5)c4)nn4ncccc34)n2)cc1 [UNC10225159A]
Result: 0

Problem: Same lookup for COc1cccc(OC)c1C(=O)Nc1cccc(-c2nn3ccccc3c2-c2ccnc(Nc3cccc(F)c3)n2)c1 [UNC10225310A] , please.
Result: 24

Problem: What do you get for O=c1cc(N2CCOCC2)nc2n(Cc3cccc(Cl)c3Cl)c(C3CC3)nn12 [UNC10225469A] ?
Result: 0

* * *

Kindly supply the reported inhibition at 1 µM values for the records listed here.
- test.target: CDK11 (Homo sapiens, UniProt Q9BWU1)
- Sequence (Q9BWU1 whole entry): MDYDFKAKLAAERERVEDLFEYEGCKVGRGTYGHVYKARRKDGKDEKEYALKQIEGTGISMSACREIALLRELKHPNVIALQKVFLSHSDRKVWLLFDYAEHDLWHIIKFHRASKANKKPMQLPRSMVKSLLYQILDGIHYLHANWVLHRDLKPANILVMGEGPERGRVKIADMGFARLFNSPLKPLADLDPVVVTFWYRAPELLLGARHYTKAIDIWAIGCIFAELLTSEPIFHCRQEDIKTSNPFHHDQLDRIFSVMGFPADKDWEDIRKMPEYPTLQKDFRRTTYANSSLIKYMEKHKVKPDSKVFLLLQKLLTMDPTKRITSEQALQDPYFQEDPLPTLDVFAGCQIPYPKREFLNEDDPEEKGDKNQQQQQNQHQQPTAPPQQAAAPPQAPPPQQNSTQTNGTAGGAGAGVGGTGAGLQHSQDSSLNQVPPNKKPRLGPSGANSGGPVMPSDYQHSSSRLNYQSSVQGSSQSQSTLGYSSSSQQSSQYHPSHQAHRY
- protocol.text: KINOMEscan competition binding
- particulars: read-out: %Inh CDK11
Please state the figure in %; there is no need to write the unit.

Problem: Name the recorded inhibition at 1 µM for Cc1ccc(NC(=O)Nc2cccc(C(F)(F)F)c2)cc1 [UNC10225187A] .
Result: 20

Problem: And then Cn1cc(-c2cnc(N)c3c(-c4ccc5c(c4)CCN5C(=O)Cc4ccccc4)csc23)cn1 [UNC10225012A] , what is it?
Result: 18

Problem: Record: CS(=O)(=O)Cc1ccc(Nc2nccc(-c3c(-c4cccc(NC(=O)C5CCCCC5)c4)nn4ncccc34)n2)cc1 [UNC10225159A]
Result: 0

Problem: Now the same for O=c1cc(N2CCOCC2)nc2n(Cc3cccc(Cl)c3Cl)c(C3CC3)nn12 [UNC10225469A]
Result: 0

Problem: Param item: COc1cccc(OC)c1C(=O)Nc1cccc(-c2nn3ccccc3c2-c2ccnc(Nc3cccc(F)c3)n2)c1 [UNC10225310A]
Result: 0

Attribution: paper PMC5540273
